test system: A549 cell line; assay: In vitro cytotoxicity assay (resazurin), A549; assay type: cell-based, human; settings: Homo sapiens; A549, 24 h, resazurin
measuredMetric: IC50

Requested read-out: IC50. Entry: CCCCCCCCCCCCS(=O)(=O)C[C@H]1O[C@H](O[C@@H]2[C@@H](O)[C@H](O[C@H]3O[C@H](CN)[C@@H](O)C[C@H]3N)[C@@H](N)C[C@H]2N)[C@H](O)[C@@H](N)[C@@H]1O [Compound 4]
> 62.5 µg/mL

Which IC50 is listed for CCCCCCCCCCCCc1cn(C[C@H]2O[C@H](O[C@@H]3[C@@H](O)[C@H](O[C@H]4O[C@H](CN)[C@@H](O)C[C@H]4N)[C@@H](N)C[C@H]3N)[C@H](O)[C@@H](N)[C@@H]2O)nn1 [Compound 7b] ?
> 62.5 µg/mL

# IC50 lookup, item CCCCCCCCCCc1cn(C[C@H]2O[C@H](O[C@@H]3[C@@H](O)[C@H](O[C@H]4O[C@H](CN)[C@@H](O)C[C@H]4N)[C@@H](N)C[C@H]3N)[C@H](O)[C@@H](N)[C@@H]2O)nn1 [Compound 7a]
> 62.5 µg/mL

Can you share its IC50? I mean this molecule: CCCCCCCCCCCC(=O)NC[C@H]1O[C@H](O[C@@H]2[C@@H](O)[C@H](O[C@H]3O[C@H](CN)[C@@H](O)C[C@H]3N)[C@@H](N)C[C@H]2N)[C@H](O)[C@@H](N)[C@@H]1O [Compound 9]
> 62.5 µg/mL

====

Record form. Attribute: hemolysis at 1 h, 7.8 μg/mL. Fill in for each entry.
assay: Hemolytic activity assay; assay type: cell-based, murine; conditions: mouse, murine red blood cells (mRBCs); 7.8 μg/mL, mRBCs, 37 °C 1 h, ± SDEV
Return type: number; implicit unit %.

Report hemolysis at 1 h, 7.8 μg/mL for C[C@@H]1[C@H](O)[C@@H](C)/C=C/C=C/C=C/C=C/C=C/C=C/C=C/[C@H](O[C@@H]2O[C@H](C)[C@@H](O)[C@H](N)[C@@H]2O)C[C@@H]2O[C@](O)(C[C@@H](O)C[C@@H](O)[C@H](O)CC[C@@H](O)C[C@@H](O)CC(=O)O[C@H]1C)C[C@H](O)[C@H]2C(=O)O [AmB, amphotericin B, reference compound] please.
3.7

Consider the compound shown here: "CCCCCCCCCCCCSC[C@H]1O[C@H](O[C@@H]2[C@@H](O)[C@H](O[C@H]3O[C@H](CN)[C@@H](O)C[C@H]3N)[C@@H](N)C[C@H]2N)[C@H](O)[C@@H](N)[C@@H]1O" What is its recorded hemolysis at 1 h, 7.8 μg/mL?
18.6

====

test: Hemolytic activity assay; assay type: cell-based, murine; details: mouse, murine red blood cells (mRBCs); 62.5 μg/mL, mRBCs, 37 °C 1 h, ± SDEV
Kindly apply the following: satisfied if hemolysis at 1 h, 62.5 μg/mL is less than 30%, not satisfied in every other case.

State whether 30% exceeds hemolysis at 1 h, 62.5 μg/mL recorded for CCCCCCCCCCCCSC[C@H]1O[C@H](O[C@@H]2[C@@H](O)[C@H](O[C@H]3O[C@H](CN)[C@@H](O)C[C@H]3N)[C@@H](N)C[C@H]2N)[C@H](O)[C@@H](N)[C@@H]1O [Compound 3] .
not satisfied

Please determine if CCCCCCCCCCCCS(=O)(=O)C[C@H]1O[C@H](O[C@@H]2[C@@H](O)[C@H](O[C@H]3O[C@H](CN)[C@@H](O)C[C@H]3N)[C@@H](N)C[C@H]2N)[C@H](O)[C@@H](N)[C@@H]1O [Compound 4] is below 30% in terms of hemolysis at 1 h, 62.5 μg/mL.
not satisfied

Lab log: compare recorded hemolysis at 1 h, 62.5 μg/mL with 30%; is it strictly lower for NC[C@H]1O[C@H](O[C@H]2[C@H](O)[C@@H](O[C@H]3O[C@H](CO)[C@@H](O)[C@H](N)[C@H]3O)[C@H](N)C[C@@H]2N)[C@H](N)C[C@@H]1O [TOB, tobramycin] ?
satisfied

A record lists CCCCCCCCCCCCc1cn(C[C@H]2O[C@H](O[C@@H]3[C@@H](O)[C@H](O[C@H]4O[C@H](CN)[C@@H](O)C[C@H]4N)[C@@H](N)C[C@H]3N)[C@H](O)[C@@H](N)[C@@H]2O)nn1 [Compound 7b] . Is its hemolysis at 1 h, 62.5 μg/mL below 30%?
not satisfied

Please let me know if CCCCCCCCCCCC(=O)NC[C@H]1O[C@H](O[C@@H]2[C@@H](O)[C@H](O[C@H]3O[C@H](CN)[C@@H](O)C[C@H]3N)[C@@H](N)C[C@H]2N)[C@H](O)[C@@H](N)[C@@H]1O [Compound 9] shows hemolysis at 1 h, 62.5 μg/mL below 30%.
not satisfied

Does the reported hemolysis at 1 h, 62.5 μg/mL of the following compound sit strictly below 30%? CCCCCCCCCCc1cn(C[C@H]2O[C@H](O[C@@H]3[C@@H](O)[C@H](O[C@H]4O[C@H](CN)[C@@H](O)C[C@H]4N)[C@@H](N)C[C@H]3N)[C@H](O)[C@@H](N)[C@@H]2O)nn1 [Compound 7a]
satisfied

====

Experiment: Hemolytic activity assay
Type: cell-based, murine
Conditions: mouse, murine red blood cells (mRBCs); 0.975 μg/mL, mRBCs, 37 °C 1 h, ± SDEV
Protocol: The hemolytic activity of compounds 3, 4, 7a, 7b, and 9 as well as the parent compound TOB was determined by using previously described methods with minor modifications. Murine whole blood (1 mL) was suspended in 4 mL of PBS and centrifuged at 1000 rpm for 10 min at room temperature to obtain murine red blood cells (mRBCs). […] The percentage of hemolysis was calculated using the following equation: % hemolysis = [(absorbance of sample) − (absorbance of blank)] × 100/(absorbance of positive control).
measuredMetric: hemolysis at 1 h, 0.975 μg/mL (%)
Write the number in % without appending the unit.

// lookup hemolysis at 1 h, 0.975 μg/mL for CCCCCCCCCCCCSC[C@H]1O[C@H](O[C@@H]2[C@@H](O)[C@H](O[C@H]3O[C@H](CN)[C@@H](O)C[C@H]3N)[C@@H](N)C[C@H]2N)[C@H](O)[C@@H](N)[C@@H]1O [Compound 3]
2.5

Data request, read-out hemolysis at 1 h, 0.975 μg/mL, for CCCCCCCCCCCCS(=O)(=O)C[C@H]1O[C@H](O[C@@H]2[C@@H](O)[C@H](O[C@H]3O[C@H](CN)[C@@H](O)C[C@H]3N)[C@@H](N)C[C@H]2N)[C@H](O)[C@@H](N)[C@@H]1O [Compound 4]
0

I would be grateful if you could share the reported hemolysis at 1 h, 0.975 μg/mL for C[C@@H]1[C@H](O)[C@@H](C)/C=C/C=C/C=C/C=C/C=C/C=C/C=C/[C@H](O[C@@H]2O[C@H](C)[C@@H](O)[C@H](N)[C@@H]2O)C[C@@H]2O[C@](O)(C[C@@H](O)C[C@@H](O)[C@H](O)CC[C@@H](O)C[C@@H](O)CC(=O)O[C@H]1C)C[C@H](O)[C@H]2C(=O)O [AmB, amphotericin B, reference compound] .
0

If you can, please state the reported hemolysis at 1 h, 0.975 μg/mL value of NC[C@H]1O[C@H](O[C@H]2[C@H](O)[C@@H](O[C@H]3O[C@H](CO)[C@@H](O)[C@H](N)[C@H]3O)[C@H](N)C[C@@H]2N)[C@H](N)C[C@@H]1O [TOB, tobramycin] .
9.3

Returns the measured hemolysis at 1 h, 0.975 μg/mL for the input compound. Input: CCCCCCCCCCCC(=O)NC[C@H]1O[C@H](O[C@@H]2[C@@H](O)[C@H](O[C@H]3O[C@H](CN)[C@@H](O)C[C@H]3N)[C@@H](N)C[C@H]2N)[C@H](O)[C@@H](N)[C@@H]1O [Compound 9]
0

GET /values?readout=hemolysis at 1 h, 0.975 μg/mL&item= CCCCCCCCCCCCc1cn(C[C@H]2O[C@H](O[C@@H]3[C@@H](O)[C@H](O[C@H]4O[C@H](CN)[C@@H](O)C[C@H]4N)[C@@H](N)C[C@H]3N)[C@H](O)[C@@H](N)[C@@H]2O)nn1 [Compound 7b]
0

Tell me the measured hemolysis at 1 h, 0.975 μg/mL of CCCCCCCCCCc1cn(C[C@H]2O[C@H](O[C@@H]3[C@@H](O)[C@H](O[C@H]4O[C@H](CN)[C@@H](O)C[C@H]4N)[C@@H](N)C[C@H]3N)[C@H](O)[C@@H](N)[C@@H]2O)nn1 [Compound 7a] , please.
0

====

system: Candida parapsilosis clinical isolate CP1; test: MIC, broth microdilution (CLSI M27-A3), CP1; format: cell-based; details: Lodderomyces parapsilosis; MIC-0, CP1, 35 °C 48 h
So I've got a bunch of compounds here, and I need their MIC values.
Note: unit µg/mL is implicit; provide only the numeric part.

State the recorded MIC for this entry: CC[C@H](C)C[C@H](C)CCCCCCCCC(=O)N[C@H]1C[C@@H](O)[C@@H](NCCN)NC(=O)[C@@H]2[C@@H](O)CCN2C(=O)[C@H]([C@H](O)CCN)NC(=O)[C@H]([C@H](O)[C@@H](O)c2ccc(O)cc2)NC(=O)[C@@H]2C[C@@H](O)CN2C(=O)[C@H]([C@@H](C)O)NC1=O [CAS, caspofungin, reference compound]
0.48

Would you mind telling me what MIC value was observed for "CCCCCCCCCCc1cn(C[C@H]2O[C@H](O[C@@H]3[C@@H](O)[C@H](O[C@H]4O[C@H](CN)[C@@H](O)C[C@H]4N)[C@@H](N)C[C@H]3N)[C@H](O)[C@@H](N)[C@@H]2O)nn1" ?
15.6

Which value of MIC has been reported for "CCCCCCCCCCCCS(=O)(=O)C[C@H]1O[C@H](O[C@@H]2[C@@H](O)[C@H](O[C@H]3O[C@H](CN)[C@@H](O)C[C@H]3N)[C@@H](N)C[C@H]2N)[C@H](O)[C@@H](N)[C@@H]1O" in the records?
3.9

Which MIC reading was recorded for the compound CCCCCCCCCCCCOCC1OC(OC2C(N)CC(N)C(OC3OC(CN)C(O)CC3N)C2O)C(O)C(N)C1O (centres unmarked) ?
62.5

The measurements presented in this section are drawn from paper PMC5971061.
